Molecular target: CAL PDZ domain (CALP), wild type (UniProt Q9HD26 278-362)
Experiment: fluorescence anisotropy displacement; Fig 9A; upper bound, nonspecific Rh inhibition
Where no end group is shown, it is not given here.

binder	Ki [µM]
Ac-QLD(dirhodium)VTR (also: dirhodium metal complex at Asp side-chain carboxylate) [QLD^RhVTR metallopeptide]	10

Source of measurements: patent US9045527
